Tested on: Staphylococcus sp.
Assay: in vitro antibacterial evaluation, MIC by broth dilution
Format: cell-based
Settings: strain GC 3053; broth dilution, 18 hours at 35° C.
This section presents compounds with their documented MIC Staphylococcus aureus (GC 3053) values.
Give just the numeric value; µg/mL need not be written.

These solved cases illustrate the format of a correct answer.
COMPOUND | REPORTED RESULT
CC(c1ccccc1)C1NC(=O)CNC(=O)C(CO)NC(=O)C(C(O)C2CNC(=N)N2C2OC(CO)C(O)C(O)C2O)NC(=O)C(C(O)C2CNC(=N)N2)NC(=O)C(Cc2ccc(OC3OC(CO)C(OC4OC(CO)C(O)C5OC6(CCCCCCCCCCCC6)OC45)C(O)C3O)cc2)NC1=O (stereo not shown) [Example 210a] | 4
CC(c1ccccc1)C1NC(=O)CNC(=O)C(CO)NC(=O)C(C(O)C2CNC(=N)N2C2OC(CO)C(O)C(O)C2O)NC(=O)C(C(O)C2CNC(=N)N2)NC(=O)C(Cc2ccc(OC3OC(CO)C(OC4OC5COC6(OC5C(O)C4O)C4CCCC6CCC4)C(O)C3O)cc2)NC1=O (stereo not shown) | 4

Next:
Entry CC(c1ccccc1)C1NC(=O)CNC(=O)C(CO)NC(=O)C(CC2CNC(=N)N2C2OC(CO)C(O)C(O)C2O)NC(=O)C(CC2CNC(=N)N2)NC(=O)C(Cc2ccc(OC3OC(CO)C(OC4OC5COC6(OC5C(O)C4O)C4CC5CC(C4)CC6C5)C(O)C3O)cc2)NC1=O (stereo not shown) , MIC Staphylococcus aureus (GC 3053) reported as 2

====

MIC Enterococcus faecalis (GC 4552) by entry:
System: Enterococcus sp.
Test: in vitro antibacterial evaluation, MIC by broth dilution
Assay type: cell-based
Settings: broth dilution, inoculum 5×10^5 CFU/mL, 18 hours at 35° C.; strain GC 4552
Give the value, in units of µg/mL, as a plain number.

COMPOUND | UNIT TEXT | MIC Enterococcus faecalis (GC 4552)
CSc1ccc(C2OCC3OC(OC4C(CO)OC(Oc5ccc(CC6NC(=O)C(C(C)c7ccccc7)NC(=O)CNC(=O)C(CO)NC(=O)C(C(O)C7CNC(=N)N7C7OC(CO)C(O)C(O)C7O)NC(=O)C(C(O)C7CNC(=N)N7)NC6=O)cc5)C(O)C4O)C(O)C(O)C3O2)cc1[N+](=O)[O-] (centres unmarked) | µg/mL | 2

// switching to the query compound
The measured MIC Enterococcus faecalis (GC 4552) associated with CC(c1ccccc1)C1NC(=O)CNC(=O)C(CO)NC(=O)C(C(O)C2CNC(=N)N2C2OC(CO)C(O)C(O)C2O)NC(=O)C(C(O)C2CNC(=N)N2)NC(=O)C(Cc2ccc(OC3OC(CO)C(OC4OC(CO)C(O)C(OCc5ccc(OCc6ccccc6)cc5)C4O)C(O)C3O)cc2)NC1=O (centres unmarked) [Example 231c] reads 4

====

Collected MIC Enterococcus faecium (GC 4556) values appear next to each entry.
Tested on: Enterococcus sp.
Experiment: in vitro antibacterial evaluation, MIC by broth dilution
Type: cell-based
Conditions: broth dilution, inoculum 5×10^5 CFU/mL, 18 hours at 35° C.; strain GC 4556
# number only, unit µg/mL dropped from output

MOLECULE | ASSAY SYSTEM | MIC Enterococcus faecium (GC 4556), µg/mL
CC(c1ccccc1)C1NC(=O)CNC(=O)C(CO)NC(=O)C(CC2CNC(=N)N2C2OC(CO)C(O)C(O)C2O)NC(=O)C(CC2CNC(=N)N2)NC(=O)C(Cc2ccc(OC3OC(CO)C(OC4OC5COC6(OC5C(O)C4O)C4CC5CC(C4)CC6C5)C(O)C3O)cc2)NC1=O (centres unmarked) | Enterococcus sp. | 8

# input for lookup
Form: molecule = CC(c1ccccc1)C1NC(=O)CNC(=O)C(CO)NC(=O)C(C(O)C2CNC(=N)N2C2OC(CO)C(O)C(O)C2O)NC(=O)C(C(O)C2CNC(=N)N2)NC(=O)C(Cc2ccc(OC3OC(CO)C(OC4OC5COC6(CCSCC6)OC5C(O)C4O)C(O)C3O)cc2)NC1=O (centres unmarked) ; MIC Enterococcus faecium (GC 4556) = 16

Data credit: patent US6914045B2
